Answer each item with its documented minimum inhibitory concentration.
tested on: Mannheimia haemolytica; experiment: minimum inhibitory concentration (MIC); settings: isolate (source animal id): 253
The response must be a number in µg/mL with no trailing unit.

Query string: Item: CCCNC[C@]1(O)[C@H](C)O[C@@H](O[C@H]2[C@H](C)[C@@H](O[C@@H]3O[C@H](C)C[C@H](N(C)C)[C@H]3O)[C@](C)(O)C[C@@H](C)CN[C@H](C)[C@@H](O)[C@](C)(O)[C@@H](CC)OC(=O)[C@@H]2C)C[C@@]1(C)OC Test system: Mannheimia haemolytica Read-out: minimum inhibitory concentration Value: ?
Result string: 16

Query string: Quick one: CN1C[C@@H]2C[C@H]1CN2c1cc2c(cc1F)c(=O)c(C(=O)O)cn2C1CC1
Result string: 0.5

Query string: Quick one: CCC[C@@H]1C[C@@H](C(=O)N[C@@H]([C@H]2O[C@H](SC)[C@H](O)[C@@H](O)[C@H]2O)[C@H](C)Cl)N(C)C1
Result string: 16

Query string: Quick one: CS(=O)(=O)c1ccc([C@@H](O)[C@@H](CF)NC(=O)C(Cl)Cl)cc1
Result string: 2

Data provenance is the supplement of paper PMC8612539.
